- Tested on: P. falciparum stage V gametocytes
- Parameters: BacTiter-Glo ATP luminescence viability of purified stage V gametocytes in 384-well plates, per cent inhibition versus DMSO
- Stated Conditions: 48 h, 5 µM; inhibitor
About 3,200 (25%) of roughly 13,000 compounds showed an effect of 50% or more. This is one part of the list.
Reported Endpoint: % Inhibition (%)
Value expressed in %; do not type the unit.

Lookup: What does the data say about its % Inhibition? Entry: Cc1ccc(-c2cccc3c(NC(=O)Nc4ccc5nccc(N6CCN(C)CC6)c5c4)cccc23)cn1 [TCMDC-139367]
Found: -6.741

Lookup: Please give the result for O=C(Nc1ccc(Cl)c(C(F)(F)F)c1)Nc1ccc(Cl)c(C(F)(F)F)c1 [TCMDC-137559] too.
Found: -42.31

Lookup: Please give the result for Cc1noc(C)c1CN1CCCN(c2ccc3c(c2)CCN(Cc2ccc(-c4ncc[nH]4)cc2)CC3)CC1 [TCMDC-136548] too.
Found: -0.683

Lookup: Please give the result for O=C(NC1CCN(c2ccnc3cc(Cl)ccc23)C1)c1ccc(F)cc1 (stereo not shown) [TCMDC-133653] too.
Found: -3.627

###

- Tested on: P. falciparum stage V gametocytes
- Parameters: BacTiter-Glo ATP luminescence viability of purified stage V gametocytes in 384-well plates, per cent inhibition versus DMSO
- Stated Conditions: 48 h, 5 µM; inhibitor
Screen size: about 13,000 compounds; about 3,200 (25%) showed an effect of 50% or more. The list shows a part of the results.
Reported Endpoint: % Inhibition (%)
Value expressed in %; do not type the unit.

Lookup: What does the data say about its % Inhibition? Entry: O=C(CC1CCCC1)N(CC1CCN(Cc2ccc(C(F)(F)F)cc2)CC1)c1ccc(N2CCOCC2)c(F)c1 [TCMDC-135855]
Found: 9.841

Lookup: Please give the result for Fc1cccc(COc2ccc(Nc3ncnc4sc(C#C[C@H]5CC[C@H](CN6CCOCC6)N5)cc34)cc2Cl)c1 [TCMDC-135417] too.
Found: -15.95

Lookup: Please give the result for COc1ccc(N2CCN(c3nc(Nc4ccc(NC(C)=O)cc4)nc(N4CCCC4)n3)CC2)cc1 [TCMDC-123875] too.
Found: -17.97

Lookup: Please give the result for O=C(Nc1ccc(Cl)cc1)c1cccc(S(=O)(=O)NC2CCN(CC3CCCCC3)CC2)c1 [TCMDC-132807] too.
Found: 80.59

###

- System: P. falciparum stage V gametocytes
- Design: BacTiter-Glo ATP luminescence viability of purified stage V gametocytes in 384-well plates, per cent inhibition versus DMSO
- Stated Conditions: 48 h, 5 µM; inhibitor
Out of some 13,000 compounds screened, about 3,200 (25%) showed an effect of 50% or more. The list shows a part of the results.
Exercise: for every item that follows, state its recorded % Inhibition.
Enter the number, and then the unit.

Lookup: What does the data say about its % Inhibition? Entry: COc1ccc(-c2cccc(NC(=O)c3cccc(F)c3)c2)cc1CN1CCCN(C)CC1
Found: 89.96%

Lookup: Please give the result for COc1ccc(-c2ccc(S(=O)(=O)Nc3cc4c(cc3OC(C)C)CCNCC4)cc2)cc1 too.
Found: 37.39%

Lookup: Please give the result for C/C=C1\CN2CC[C@H]1C[C@H]2[C@H](O)c1ccnc2ccc(O)cc12 too.
Found: 3.79%

Lookup: Please give the result for CN1CCc2cc(NS(=O)(=O)c3ccc(-c4ccc(Cl)s4)cc3)c(N3CCCCC3)cc2CC1 too.
Found: 76.97%

Lookup: Please give the result for COc1ccc(-c2cccc(NC(=O)c3ccc(F)cc3)c2)cc1CN1CCCN(C)CC1 too.
Found: 5.891%

Lookup: Please give the result for Cc1[nH]c2ccc(NS(C)(=O)=O)cc2c1C1CCN(CC2CCN(C(=O)/C=C/c3ccc(Cl)c(Cl)c3)CC2)CC1 too.
Found: -39.53%

Lookup: Please give the result for COc1ccc(-c2ccc(NC(=O)c3cccc(F)c3)cc2)cc1CN1CCCN(C)CC1 too.
Found: 79.48%

Lookup: Please give the result for CN1CCc2cc(NS(=O)(=O)c3ccc(-c4ccc(Cl)cc4)cc3)c(OCCCN3CCCCC3)cc2CC1 too.
Found: 108.9%

###

- Tested on: P. falciparum stage V gametocytes
- Parameters: BacTiter-Glo ATP luminescence viability of purified stage V gametocytes in 384-well plates, per cent inhibition versus DMSO
- Stated Conditions: 48 h, 5 µM; inhibitor
The campaign covered roughly 13,000 compounds. About 3,200 (25%) showed an effect of 50% or more. Some of the results follow.
Reported Endpoint: % Inhibition (%)
Value expressed in %; do not type the unit.

Lookup: # query: % Inhibition | item COc1ccc(NCCCNc2ccnc3ccccc23)cc1 | system: P. falciparum stage V gametocytes
Found: -97.14

Lookup: Please give the result for COc1ccc(-c2cccc(NC(=O)c3cccc(C#N)c3)c2)cc1CN1CCN(C)CC1 too.
Found: 71.95

Lookup: Please give the result for COc1ccc(-c2ccc(NC(=O)c3cccc(C#N)c3)cc2)cc1CN1CCCC(C(N)=O)C1 (centres unmarked) too.
Found: 78.38

Lookup: Please give the result for OC(CNC12CC3CC(CC(C3)C1)C2)c1cccc(C(F)(F)F)c1 (centres unmarked) too.
Found: -56.01

Lookup: Please give the result for COc1ccc(-c2ccc(NC(=O)c3ccc(C#N)cc3)cc2)cc1CN1CCC(O)CC1 too.
Found: -51.71

Lookup: Please give the result for FC(F)(F)c1ccc2[nH]c(-c3cccc(-c4cccc(CNCC5CCCO5)c4)c3)nc2c1.O=C(O)C(F)(F)F (centres unmarked) too.
Found: -56.01

Lookup: Please give the result for CC(C)NCc1ccc(-c2ccc(CN3CCCC(c4ccccc4)C3)cc2)c(C(=O)NC2Cc3ccccc3C2)c1 (centres unmarked) too.
Found: 9.317

Lookup: Please give the result for COc1ccc(-c2ccc(NC(=O)c3cccc(C#N)c3)cc2)cc1CN1CCN(C)CC1 too.
Found: 1.481

Lookup: Please give the result for c1ccc(N2CCN(c3cc(-c4cccnc4)nc(-c4ccncc4)n3)CC2)nc1 too.
Found: 44.02

Lookup: Please give the result for CC(C)Nc1nc(NCCc2cnc[nH]2)nc(NCc2ccc(Cl)c(Cl)c2)n1 too.
Found: 6.944

Lookup: Please give the result for COc1ccc(-c2cccc(NC(=O)c3cccc(C#N)c3)c2)cc1CN1CCCN(C)CC1 too.
Found: 35.38

Lookup: Please give the result for COc1ccc(CN(C)C(=O)CCNS(=O)(=O)c2ccc3c(c2)OCCCO3)cc1F too.
Found: 27.77

Lookup: Please give the result for Clc1ccc2c(NCCCCCCCCNc3ccnc4cc(Cl)ccc34)ccnc2c1 too.
Found: 25.46

Lookup: Please give the result for O=C(Nc1ccc(Cn2ncc(N3CCCNCC3)c(Cl)c2=O)cc1)Nc1cc(F)cc(C(F)(F)F)c1 too.
Found: -20.94

Lookup: Please give the result for CCOC(=O)c1ccc(N2CCN(c3cc(Cl)ccc3C)CC2)c(NC(=O)Nc2ccc(Cl)c(Cl)c2)c1 too.
Found: -37.8

Lookup: Please give the result for CCOC(=O)c1c(NC(=O)c2ccccc2)sc2c(O)c(CNC3CCCCC3)ccc12 too.
Found: 25.8

Lookup: Please give the result for COCCn1c(Sc2ncnc3sccc23)nc2ccccc21 too.
Found: 10.99

Lookup: Please give the result for O=C(Nc1cccnc1)c1cn(-c2ccccc2)nc1-c1cccs1 too.
Found: -11.35

Lookup: Please give the result for CN1CCC(N(Cc2ccc(-c3ccc(C(F)(F)F)cc3)cc2)C(=O)Cn2cc(Cc3cnn(C)c3)c(=O)nc2SCc2cccc(F)c2F)CC1 too.
Found: 106.7

Lookup: Please give the result for COc1ccc(-c2ccc(NC(=O)c3cccc(C#N)c3)cc2)cc1CN1CCC(O)CC1 too.
Found: -38.76

Lookup: Please give the result for c1ccc2c(NCCCCCCCCCNc3ccnc4ccccc34)ccnc2c1 too.
Found: 102.2

Lookup: Please give the result for FC(F)(F)c1ccc2c(NCCNc3ccnc4cc(C(F)(F)F)ccc34)ccnc2c1 too.
Found: -4.365

Lookup: Please give the result for CC(C)N1CCC(N(Cc2ccc(-c3ccc(Cl)cc3)cc2)C(=O)Cn2c(CCc3cccc(F)c3F)cc(=O)c3ccccc32)CC1 too.
Found: 102.7

Lookup: Please give the result for NCCCNc1ccnc2cc(Cl)ccc12 too.
Found: 17.37

Lookup: Please give the result for c1cncc(-c2cc(N3CCc4ccccc4C3)nc(-c3ccncc3)n2)c1 too.
Found: 60.68

Lookup: Please give the result for CCN(CC)CCNC(=O)c1ccc(NC(=O)c2cn(-c3ccccc3)nc2-c2cccs2)cc1 too.
Found: 29.35

Lookup: Please give the result for CCc1c(C(=O)NC2CCC(N3CCC(c4ccccc4OC)CC3)CC2)[nH]c2ccc(Br)cc12 (centres unmarked) too.
Found: -52.27

Lookup: Please give the result for COc1ccc(Br)cc1/C=C/C(=O)Nc1ccc(C2CCCN(C)C2)cc1 (centres unmarked) too.
Found: 9.818

Lookup: Please give the result for CN1CCN(c2cc(-c3ccncc3)nc(-c3cccnc3)n2)CC1 too.
Found: 38.53

Lookup: Please give the result for O=C(NCc1cccc(C(F)(F)F)c1)C(c1cc2ccccc2o1)N1CCN(C(c2ccccc2)c2ccccc2)CC1 (centres unmarked) too.
Found: 8.041

Lookup: Please give the result for O=C(/C=C/c1ccc(Cl)c(Cl)c1)NCCCCCCN1CCN(C(=O)Nc2ccc(F)c(Cl)c2)CC1 too.
Found: -83.03

Lookup: Please give the result for COc1ccc2nccc(N3CCN(CCNCc4ccc5c(n4)NC(=O)CS5)CC3)c2n1 too.
Found: -20.32

Source of measurements: paper PMC4552634
